For each entry below, report its relative viability value.
# Test system: HARA
# experiment summary: relative viability (nuclei count vs DMSO), 5 days (fraction); higher = more cells survive
# measurement conditions: first compound 0.04 µM

Asked: Consider the compound shown here: Clc1ccc(Nc2nnc(Cc3ccncc3)c3ccccc23)cc1 [Vatalanib] + CC1(C)CCC(c2ccc(Cl)cc2)=C(CN2CCN(c3ccc(C(=O)NS(=O)(=O)c4ccc(N[C@H](CCN5CCOCC5)CSc5ccccc5)c(S(=O)(=O)C(F)(F)F)c4)cc3)CC2)C1 [Navitoclax] (partner 0.5 µM) What is its recorded relative viability?
Given back: 1.08

Asked: Could you tell me which relative viability is on file for COc1cc(N2CCC(C(N)=O)CC2)ccc1Nc1nc(N)c(Cl)c(Nc2ccccc2S(=O)(=O)C(C)C)n1 [HG-5-88-01] + CC(=O)Nc1cccc(-n2c(=O)n(C3CC3)c(=O)c3c(Nc4ccc(I)cc4F)n(C)c(=O)c(C)c32)c1 [Trametinib] (partner 0.02 µM) ?
Given back: 1.01

Asked: So what does the record say about relative viability for C[C@@H]1CN(CC(=O)Nc2ccc3c(c2)Cc2cccc(-c4cc(=O)cc(N5CCOCC5)o4)c2S3)C[C@H](C)O1 + O=C(c1cc(Cc2n[nH]c(=O)c3ccccc23)ccc1F)N1CCN(C(=O)C2CC2)CC1 [Olaparib] (partner 8 µM) ?
Given back: 0.932

Asked: For Clc1ccc(Nc2nnc(Cc3ccncc3)c3ccccc23)cc1 [Vatalanib] + CC(=O)Nc1cccc(-n2c(=O)n(C3CC3)c(=O)c3c(Nc4ccc(I)cc4F)n(C)c(=O)c(C)c32)c1 [Trametinib] (partner 0.02 µM) , what is its reported relative viability?
Given back: 0.687
